ASSAY TARGET: the molecule itself
ASSAY DETAILS: native-gel electrophoresis, self-association in aqueous solution
VALUE KIND: binding result

{"columns": ["PROTEIN", "VALUE KIND", "RESULT"],
 "data": [
  ["flagellin mutant (S103W) of V. vulnificus flagellin FlaB (ligand, Recombinant, from pTYB12 intein fusion in E. coli ER2566) MAVNVNTNVAAMTAQRYLNNANSAQQTSMERLSSGFKINSAKDDAAGLQISNRLNVQSRGLDVAVRNANDGISIAQTAEGAMNETTNILQRMRDLSLQSANGWNSKSERVAIQEEVTALNDELNRIAETTSFGGNKLLNGTYGTKAMQIGADNGEAVMLSLKDMRSDNVMMGGVSYQAEEGKDKNWNVAAGDNDLTIALTDSFGNEQEIEINAKAGDDIEELATYINGQTDLVKASVGEGGKLQIFAGNNKVQGEIAFSGSLAGELGLGEGKNVTVDTIDVTTVQGAQESVAIVDAALKYVDSHRAELGAFQNRFNHAISNLDNINENVNASKSRIKDTDFAKETTQLTKTQILSQASSSILAQAKQAPNSALSLLG", "binding result", "binds"],
  ["flagellin mutant (N101A) of V. vulnificus flagellin FlaB (ligand, Recombinant, from pTYB12 intein fusion in E. coli ER2566) MAVNVNTNVAAMTAQRYLNNANSAQQTSMERLSSGFKINSAKDDAAGLQISNRLNVQSRGLDVAVRNANDGISIAQTAEGAMNETTNILQRMRDLSLQSAAGSNSKSERVAIQEEVTALNDELNRIAETTSFGGNKLLNGTYGTKAMQIGADNGEAVMLSLKDMRSDNVMMGGVSYQAEEGKDKNWNVAAGDNDLTIALTDSFGNEQEIEINAKAGDDIEELATYINGQTDLVKASVGEGGKLQIFAGNNKVQGEIAFSGSLAGELGLGEGKNVTVDTIDVTTVQGAQESVAIVDAALKYVDSHRAELGAFQNRFNHAISNLDNINENVNASKSRIKDTDFAKETTQLTKTQILSQASSSILAQAKQAPNSALSLLG", "binding result", "binds"]
]}
